- Tested on: ORYZA SATIVA, L. TEBONNET
- MEASUREMENT_PROTOCOL: Preemergence herbicidal evaluation, ORYSAT (Rice, Tebonnet)
- Format: in vivo
- CONDITION_CONTEXT: Rate 0.125 kg/ha, rated four to five weeks after treatment
What ORYSAT herbicidal rating was measured for each of the following?
Lab note: jot down the number only; don't add units.

If you can, please state the reported ORYSAT herbicidal rating value of CC(C)OC(=O)Cn1c(=O)n(C)c(=O)n(-c2cc(Oc3ncc(C(F)(F)F)cc3Cl)ccc2Br)c1=O .
0.0

Follow-up item: COC(=O)Cn1c(=O)n(C)c(=O)n(-c2cc(Oc3ccc(SC)cc3Cl)ccc2[N+](=O)[O-])c1=O
0.0

Follow-up item: COC(=O)Cn1c(=O)n(C)c(=O)n(-c2cc(Oc3ccc(C#N)cc3)ccc2[N+](=O)[O-])c1=O
2.0

Follow-up item: COC(=O)Cn1c(=O)[nH]c(=O)n(-c2cc(Oc3ccc(Cl)cc3Cl)ccc2[N+](=O)[O-])c1=O
1.0

Follow-up item: COC(=O)Cn1c(=O)n(C)c(=O)n(-c2cc(Oc3ccc([S+](C)[O-])cc3Cl)ccc2[N+](=O)[O-])c1=O (stereo not drawn)
0.0

Follow-up item: COC(=O)Cn1c(=O)n(C)c(=O)n(-c2cc(Oc3cc(Cl)c(Cl)cc3Cl)ccc2[N+](=O)[O-])c1=O
3.0

====

What ORYSAT herbicidal rating (rice tolerance) was measured for each of the following?
- System: ORYZA SATIVA, L. TEBONNET
- MEASUREMENT_PROTOCOL: Rice tolerance to post-transplant applications under flooded paddy conditions, ORYSAT (Rice, Tebonnet);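 note: applied to flooded soil surface three days after transplanting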
- Format: in vivo
- CONDITION_CONTEXT: post-transplant rice, Rate 0.125 kg/ha, rated three to four weeks after treatment
Lab note: jot down the number only; don't add units.

If you can, please state the reported ORYSAT herbicidal rating (rice tolerance) value of COC(=O)Cn1c(=O)n(C)c(=O)n(-c2cc(Oc3ccc(C(F)(F)F)cc3Cl)ccc2[N+](=O)[O-])c1=O .
3.0

Follow-up item: COC(=O)Cn1c(=O)n(C)c(=O)n(-c2cc(Oc3c(F)cc(C(F)(F)F)cc3Cl)ccc2Br)c1=O
4.0

Follow-up item: CCOC(=O)Cn1c(=O)n(CC(=O)OC)c(=O)n(-c2cc(Oc3c(F)cc(C(F)(F)F)cc3Cl)ccc2C#N)c1=O
0.0

Follow-up item: COC(=O)Cn1c(=O)[nH]c(=O)n(-c2cc(Oc3ccc(C(F)(F)F)cc3Cl)ccc2[N+](=O)[O-])c1=O
0.0

Follow-up item: CCOC(=O)Cn1c(=O)n(C)c(=O)n(-c2cc(Oc3ccc(C(F)(F)F)cc3Cl)ccc2[N+](=O)[O-])c1=O
3.7

Follow-up item: COC(=O)C(C)n1c(=O)n(C)c(=O)n(-c2cc(Oc3c(F)cc(C(F)(F)F)cc3Cl)ccc2Br)c1=O (stereo not shown)
1.0

Follow-up item: CCOC(=O)Cn1c(=O)n(C)c(=O)n(-c2cc(Oc3c(F)cc(C(F)(F)F)cc3Cl)ccc2C#N)c1=O
0.0

====

- System: CHENOPODIUM ALBUM, L.
- MEASUREMENT_PROTOCOL: Postemergence herbicidal evaluation, CHEAL (Lambsquarters, Common)
- Format: in vivo
- CONDITION_CONTEXT: Rate 0.125 kg/ha
OBSERVED_PROPERTY: CHEAL rating
Lab note: jot down the number only; don't add units.

Quick check: CHEAL rating on CHENOPODIUM ALBUM, L., item COC(=O)Cn1c(=O)n(C)c(=O)n(-c2cc(Oc3cc(Cl)cc(Cl)c3)ccc2[N+](=O)[O-])c1=O [Compound 35] ?
0.0

Follow-up item: COC(=O)Cn1c(=O)n(C)c(=O)n(-c2cc(Oc3ncc(C(F)(F)F)cc3Cl)ccc2Br)c1=O [Compound 45]
9.0

Follow-up item: COC(=O)Cn1c(=O)n(C)c(=O)n(-c2cc(Oc3cc(Cl)c(Cl)cc3Cl)ccc2[N+](=O)[O-])c1=O [Compound 31]
7.0

Follow-up item: COC(=O)Cn1c(=O)n(C)c(=O)n(-c2cc(Oc3cc(Cl)cc(Cl)c3Cl)ccc2[N+](=O)[O-])c1=O [Compound 25]
0.0
